- ASSAYED_SYSTEM: Cholinesterase (Homo sapiens)
- Sequence (P06276 whole entry): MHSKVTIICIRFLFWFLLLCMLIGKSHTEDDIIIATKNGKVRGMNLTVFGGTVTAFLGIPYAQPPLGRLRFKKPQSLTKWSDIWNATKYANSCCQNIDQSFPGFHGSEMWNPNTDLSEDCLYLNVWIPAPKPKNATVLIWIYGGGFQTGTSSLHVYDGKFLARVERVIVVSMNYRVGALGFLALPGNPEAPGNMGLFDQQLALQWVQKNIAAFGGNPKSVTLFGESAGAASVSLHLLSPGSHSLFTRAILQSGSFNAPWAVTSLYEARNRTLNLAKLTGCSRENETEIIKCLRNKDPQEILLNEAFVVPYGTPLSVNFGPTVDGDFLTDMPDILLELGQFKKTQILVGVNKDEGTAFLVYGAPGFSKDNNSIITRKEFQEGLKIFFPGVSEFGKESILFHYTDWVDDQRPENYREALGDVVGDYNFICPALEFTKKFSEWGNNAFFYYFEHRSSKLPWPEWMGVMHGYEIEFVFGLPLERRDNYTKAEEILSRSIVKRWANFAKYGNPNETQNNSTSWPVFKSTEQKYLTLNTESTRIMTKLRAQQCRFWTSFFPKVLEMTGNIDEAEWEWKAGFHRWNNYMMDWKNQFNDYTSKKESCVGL
- PROCEDURE_DETAILS: Inhibition of human BuChE at 100 uM using butyrylthiocholine chloride as substrate by Ellman's method
Let's look at some molecules and their measured inhibition.

COMPOUND_SMILES	UNITS_OF_MEASURE	inhibition
CO[C@H]1C=C2[C@H]3CN(Cc4cc5c(cc43)OCO5)[C@H]2C[C@@H]1OC(=O)c1ccc(Cl)c([N+](=O)[O-])c1	%	13.8
CO[C@H]1C[C@H]2C(=C[C@@H]1OC(=O)c1cccc(C)c1)[C@H]1CN2Cc2cc3c(cc21)OCO3	%	12.9
CO[C@H]1C=C2[C@H]3CN(Cc4cc5c(cc43)OCO5)[C@H]2C[C@@H]1OC(=O)c1ccc([N+](=O)[O-])cc1Cl	%	69.8
COc1cccc(C(=O)O[C@H]2C=C3[C@H]4CN(Cc5cc6c(cc54)OCO6)[C@H]3C[C@@H]2OC)c1	%	20.3
CO[C@H]1C=C2[C@H]3CN(Cc4cc5c(cc43)OCO5)[C@H]2C[C@@H]1OC(=O)c1cc([N+](=O)[O-])ccc1Cl	%	40.1
CO[C@H]1C[C@H]2C(=C[C@@H]1OC(=O)c1ccccc1[N+](=O)[O-])[C@H]1CN2Cc2cc3c(cc21)OCO3	%	45.4
CO[C@H]1C[C@H]2C(=C[C@@H]1OC(=O)c1cc([N+](=O)[O-])cc([N+](=O)[O-])c1)[C@H]1CN2Cc2cc3c(cc21)OCO3	%	19.2
